# Tested on: MILI (PIWIL2) piRISC loaded with L1MC piRNA (26 nt);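 further: 1 nM active piRISC with 0.1 nM target library at 33 °C single turnover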
# procedureText: pre-steady-state target cleavage rate (min^-1); guide: L1MC piRNA 5'p-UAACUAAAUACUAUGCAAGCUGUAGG; MIWI and MILI are mouse PIWI proteins and EfPiwi is from a freshwater sponge; tags in brackets are library labels; higher = faster piRNA-guided slicing of the target
# experimentalContext: auxiliary factor: 500 nM mouse GTSF1

inputSequence	pre-steady-state target cleavage rate
UCCUGGAUGAGCUUGCUAUGUAUUUAGUUA	0.00711
UCCUGCUACAGCUACCAUAGUAUUUAGUAA	0.158
UCCUCCUACAGCUUGCAUAGUAAUUAGAAA	0.127
UCCUGGAACAGCUAGCAUAGUAUUUACAAA	0.0718
UCCUCCUACAGCUUGCAUAGAAUUUACAAA	0.0431
UCCUGCUAGAGCUUCCAUAGUAUUUAGUUA	0.246
UCCUGGAUCAGCUUGCUUAGUAUUAAGUUA	0.129
UCCUCCUACAGCUUGCAUACAAUUUAGUUA	0.00727
UCCUGGAUGAGCUUGCAUAGUAGUUAGUUA	0.158
UCCUGGAACAGGUUGCAUAGUAUUUACAAA	0.0582
UCCUGGAUCAGCUUGCAUAGUAUAUACAAA	0.0964
UCCUGGAUCAGCUUGGAUAGUAUUUACUUA	0.107
UCCUGGAUGUCCUUGCAUACAUUUUAGUUA	0.00731
UCCUGGAUCAGCUAUGCAUAGUAUUUAGUUA	0.281
UCCUGGAUGUCCUUCCUUAGUAUUUAGUUA	0.00908
UCCUGGAUGAGCUUGCUUAGUAUUUUGUUA	0.138
UCCUGGUACAGCUUGCAUAGAUUUUACAAA	0.00751
UCCUGGAUGUCCUAGCAUAGUAUUUAGUUA	0.0817
UCCUGGAUCAGACUUGCAUAGUAUUUAGUUA	0.254
UCCUGGAUCAGGAUGCAUAGUAUUUAGUUA	0.156
UCCUGGUACAGCUUGCAUAGUAUUUUCUUA	0.0368
UCCUGGAUGUCGAUGCAUAGUAUUUAGUCA	0.111
UCCUCCUACUCCUUGCAUAGUAUUUUCAAA	0.0534
UCCUCCAUCAGCUUGCAUAGUAUUUUCAAA	0.0846
UCCUGGAACAGCUUGCAUAGUAUAUUCAAA	0.0758
UCCUGCUACAGCUUGCAUAGUUAUUACAAA	0.00534
UCCUGGAUGAGCUUGCAUAGUAUGUUAGUUA	0.157
UCCUCCUACAGCUUGGUUAGUAUUUAGUUA	0.269
